- ASSAY NAME: self-splicing fitness, log relative to wild type (ln ratio); higher = more splicing; Tetrahymena group I intron in knt gene, E. coli kanamycin selection, DiMSum; sequences stand for … in CUCUCU…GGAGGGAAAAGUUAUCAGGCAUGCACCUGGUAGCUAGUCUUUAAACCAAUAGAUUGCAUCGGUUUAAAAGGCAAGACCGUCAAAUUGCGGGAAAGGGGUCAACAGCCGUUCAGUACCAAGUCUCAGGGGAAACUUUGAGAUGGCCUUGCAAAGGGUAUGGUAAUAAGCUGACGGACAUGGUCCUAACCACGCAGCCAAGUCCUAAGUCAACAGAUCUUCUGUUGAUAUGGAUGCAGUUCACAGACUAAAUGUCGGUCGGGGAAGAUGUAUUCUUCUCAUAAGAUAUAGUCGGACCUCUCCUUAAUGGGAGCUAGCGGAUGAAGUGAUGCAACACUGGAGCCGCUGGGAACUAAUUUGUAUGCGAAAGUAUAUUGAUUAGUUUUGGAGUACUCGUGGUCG;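 further: selection with 25 µg/mL kanamycin versus none on LB agar overnight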
- EXPERIMENTAL SETUP: 30 °C
For each entry below, report its self-splicing fitness (ln) value.
I'd appreciate a reply containing only the number, no unit.

I have this sequence here, GCGAAGCAAUAUUACGGGAC , and I need its recorded self-splicing fitness (ln). -1.66

Bench note: what self-splicing fitness (ln) did CCUCAGCAAUAUUACGGGCC show? -4.31

Endpoint output: self-splicing fitness (ln) of AUCUAGCAAUAUUACGUCAA . Value? -2.6

// query self-splicing fitness (ln) value for entry CUAUAGCAAUAUUACGAGAG -3.63

self-splicing fitness (ln) lookup needed for UGGAAGCAAUAUUACGGACU , thanks. -0.345

Could you share which self-splicing fitness (ln) value was measured for UCGCAGCAAUAUUACGUUAC ? -3.36

What self-splicing fitness (ln) value was documented for this sequence, GCUUAGCAAUAUUACGGAUC ? -0.319

Query (sequence): CAAUAGCAAUAUUACGUUUA ; field requested: self-splicing fitness (ln) -3.6

Query: self-splicing fitness (ln); subject: AUGGAGCAAUAUUACGUACG -3.38

What self-splicing fitness (ln) value was documented for this sequence, AUUUAGCAAUAUUACGUCCG ? -1.76

Record request: self-splicing fitness (ln) value, item AGGGAGCAAUAUUACGCUCG -2.31

Recorded self-splicing fitness (ln) for AACGAGCAAUAUUACGGCAC , please? -2.99

What does the data say about its self-splicing fitness (ln)? Entry: GAAAAGCAAUAUUACGUUUA -1.32

Entry GUCCAGCAAUAUUACGUACG has what self-splicing fitness (ln)? -1.58

# get_value(readout='self-splicing fitness (ln)', item= GACAAGCAAUAUUACGAUCG ) -0.776

# lookup: self-splicing fitness (ln) of UUGGAGCAAUAUUACGCGCA -2.48

Using the record for ACGCAGCAAUAUUACGUCAC , report its self-splicing fitness (ln). -4.13

Can you look up the measured self-splicing fitness (ln) of GAGGAGCAAUAUUACGUAUG for me? -3.97

Suppose we examine the sequence GGCCAGCAAUAUUACGUCGG ; what self-splicing fitness (ln) value has been reported? -3.69

Value lookup for self-splicing fitness (ln); key = ACUUAGCAAUAUUACGACUG -1.53

Tell me the measured self-splicing fitness (ln) of CUAUAGCAAUAUUACGUAGU , please. -2.88

Entry CUGUAGCAAUAUUACGUAAC has what self-splicing fitness (ln)? -3.09

I'd like to know its self-splicing fitness (ln). The sequence in question is UUGAAGCAAUAUUACGGACG -0.0419

// returns reported self-splicing fitness (ln) for input ACAUAGCAAUAUUACGGUUU -2.13

Fill in the blank: the reported self-splicing fitness (ln) of UCUAAGCAAUAUUACGGCGA is ____. -0.734

Need self-splicing fitness (ln), item AUCGAGCAAUAUUACGGGUC -3.91

Request the reported self-splicing fitness (ln) associated with CAAUAGCAAUAUUACGUUAU -4.87

Param item = CCUUAGCAAUAUUACGCGGG ; retrieve measured self-splicing fitness (ln). -3.22

If you can, please state the reported self-splicing fitness (ln) value of GCUGAGCAAUAUUACGCUUC . -2.38

Item under review: UUACAGCAAUAUUACGCACA . Reported self-splicing fitness (ln)? -0.783

Which measured self-splicing fitness (ln) value corresponds to GGUGAGCAAUAUUACGCGAA ? -2.96

Which self-splicing fitness (ln) value belongs to CGGCAGCAAUAUUACGUUGU ? -2.18

Fill blank: measured self-splicing fitness (ln) of the sequence GUCUAGCAAUAUUACGUAAC is ____. -0.708

Dear colleague, I am looking for the recorded self-splicing fitness (ln) of the following sequence: AAUAAGCAAUAUUACGGCAU 0.0296

Entry UUGGAGCAAUAUUACGGAGA has what self-splicing fitness (ln)? -2.59

# self-splicing fitness (ln) lookup, item GGGAAGCAAUAUUACGUUAG -2.72

Quick check: self-splicing fitness (ln) of ACCAAGCAAUAUUACGAAUC ? -1.48

Consider the sequence AAGCAGCAAUAUUACGUCAU and give its measured self-splicing fitness (ln). -3.1

I'd like to know its self-splicing fitness (ln). The sequence in question is ACUUAGCAAUAUUACGGUCG -2.52

I'd like to know its self-splicing fitness (ln). The sequence in question is AAUGAGCAAUAUUACGUCAU -2.26

Which self-splicing fitness (ln) value is on record for AACUAGCAAUAUUACGGCGG ? -1.21

Recorded self-splicing fitness (ln) of ACCGAGCAAUAUUACGGACU , please. -0.27

What self-splicing fitness (ln) value was documented for this sequence, GACGAGCAAUAUUACGUAGG ? -3.47

Look at this sequence and give its reported self-splicing fitness (ln). CUCCAGCAAUAUUACGCAAU -4.47

Requested field: self-splicing fitness (ln). Item: AUUCAGCAAUAUUACGGGUG -1.71

If you can, please state the reported self-splicing fitness (ln) value of AGACAGCAAUAUUACGACGC . -0.912

Look up self-splicing fitness (ln): AUCAAGCAAUAUUACGAUUG -4.34

Would you kindly share the measured self-splicing fitness (ln) for GGGGAGCAAUAUUACGUUUU ? -3.04

Could you share which self-splicing fitness (ln) value was measured for CCGCAGCAAUAUUACGAUGA ? -3.2

Quick check: self-splicing fitness (ln) of ACUGAGCAAUAUUACGUUGA ? -3.25

Dear colleague, I am looking for the recorded self-splicing fitness (ln) of the following sequence: GCGAAGCAAUAUUACGACAU -0.422

Look at this sequence and give its reported self-splicing fitness (ln). UGGUAGCAAUAUUACGUCGC -3.78

Consider the sequence CCGUAGCAAUAUUACGGGGG and give its measured self-splicing fitness (ln). -4.09

What self-splicing fitness (ln) value was documented for this sequence, CAGUAGCAAUAUUACGACGG ? -0.119

Dear colleague, I am looking for the recorded self-splicing fitness (ln) of the following sequence: AAGGAGCAAUAUUACGCACG -1.84

Which value of self-splicing fitness (ln) has been reported for AUUCAGCAAUAUUACGAGCC in the records? -2.87

Entry under review: CACGAGCAAUAUUACGAAAA . Reported self-splicing fitness (ln)? -2.14

For CGACAGCAAUAUUACGCACG , what is its reported self-splicing fitness (ln)? -3.74

Please report the recorded self-splicing fitness (ln) for CGACAGCAAUAUUACGUUAA . -3.04

Field request: self-splicing fitness (ln) | item: CUAAAGCAAUAUUACGAAUU -3.57

Look at this sequence and give its reported self-splicing fitness (ln). UAGGAGCAAUAUUACGAAUA -1.13

What value of self-splicing fitness (ln) has been recorded for this entry: ACCAAGCAAUAUUACGGCAA -0.915

Entry ACACAGCAAUAUUACGUCAC has what self-splicing fitness (ln)? -3.22

Entry CAUGAGCAAUAUUACGACGC : reported self-splicing fitness (ln) = ? -3.01

Look up self-splicing fitness (ln): GUAUAGCAAUAUUACGGCCA -0.388

Consider the sequence shown here: UAACAGCAAUAUUACGUGGU What is its recorded self-splicing fitness (ln)? -2.87

GET /values?readout=self-splicing fitness (ln)&item= AAACAGCAAUAUUACGACGG -3.02

The origin of these recorded values is the supplement of paper PMC7877785.
